All values here come from PubChem BioAssay.

test system: R275C/Slo1WT/beta2; experiment: modulators of BK channel variants, profiling panel, selectivity assay, cell-based, U2OS BacMam, thallium flux, beta subunits (AID 1259406); details: at 30 µM;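 note: initial slope of Thallos dye fluorescence rise after thallium is added; log ratio against the mean of 0.3% DMSO vehicle wells on the same plate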
property.measured: log fold change Tl+ flux
One number for each entry.

Some compounds with known log fold change Tl+ flux results, for comparison:
compound	assay.result
Cc1ccc(-c2cc(C(F)(F)F)nn2-c2ccc(S(N)(=O)=O)cc2)cc1	-0.0385
C[C@H](CS)C(=O)N1CCC[C@H]1C(=O)O	0.0231
NC(=O)N1c2ccccc2C=Cc2ccccc21	-0.0474
O=C1C(CCS(=O)c2ccccc2)C(=O)N(c2ccccc2)N1c1ccccc1 (configuration not stated)	0.0214

Provide reported log fold change Tl+ flux for each item, in the same order as listed.
1. COC(=O)Nc1nc2ccc(C(=O)c3ccccc3)cc2[nH]1
2. Cc1ccc(S(=O)(=O)NC(=O)NN2CCCCCC2)cc1

Reply |
[0.008, -0.0145]

###

test system: F380Y/beta1; test: modulators of BK channel variants, profiling panel, selectivity assay, cell-based, U2OS BacMam, thallium flux, beta subunits (AID 1259406); conditions: at 30 µM;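 note: initial slope of Thallos dye fluorescence rise after thallium is added; log ratio against the mean of 0.3% DMSO vehicle wells on the same plate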
Active and inactive are the calls of the source.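 Rule for the calls: active = thallium flux through the channel raised or lowered by more than 3 SD from vehicle-only wells, actives on both sides; inactive = the rest.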
Reply using exactly one outcome from True = active, False = inactive

compound	measurement.target	category.label
Cc1onc(-c2ccccc2)c1-c1ccc(S(N)(=O)=O)cc1	F380Y/beta1	False
CN(C)CC/C=C1\c2ccccc2COc2ccccc21	F380Y/beta1	False
CN(C)CCC[C@@]1(c2ccc(F)cc2)OCc2cc(C#N)ccc21	F380Y/beta1	False
CC(=O)OCC(=O)[C@@]12OC(C)(C)O[C@@H]1C[C@H]1[C@@H]3C[C@H](F)C4=CC(=O)C=C[C@]4(C)[C@@]3(F)[C@@H](O)C[C@@]12C	F380Y/beta1	False
N[C@@H](Cc1cc(I)c(Oc2cc(I)c(O)c(I)c2)c(I)c1)C(=O)O	F380Y/beta1	True

Ask | Which result was noted for this compound in the test: CC(N=C(NC#N)Nc1ccncc1)C(C)(C)C (centres undefined)
Reply | False

Ask | Entry `COC1=CC(=O)C[C@@H](C)[C@]12Oc1c(Cl)c(OC)cc(OC)c1C2=O` : call = ?
Reply | False

Ask | Could you kindly confirm the outcome this assay logged for `Nc1ncn([C@@H]2O[C@H](CO)[C@@H](O)[C@H]2O)c(=O)n1` ?
Reply | False

Ask | Any idea what this test logged for `CCCCNc1cc(C(=O)O)cc(S(N)(=O)=O)c1Oc1ccccc1` ?
Reply | False

###

tested on: Hepatitis C virus NS3 helicase; assay: HCV NS3 helicase inhibitors, primary screen, biochemical, fluorescence polarization, LOPAC1280 library (AID 687035); conditions: Purified HCV NS3 helicase, Cy5-dT15 ssDNA binding fluorescence polarization; active compounds read high; concentration not given here
property.measured: inhibition (%)
Numbers only, in %.

molecule	inhibition, %
COc1cc2nc(N(C)CCCNC(=O)C3CCCO3)nc(N)c2cc1OC (stereo unspecified)	-3
CCCNCC(O)COc1ccccc1C(=O)CCc1ccccc1 (stereo unspecified)	-1
N[C@@H]1CONC1=O	-2
COCCOC(=O)C1=C(C)NC(C)=C(C(=O)OC(C)C)C1c1cccc([N+](=O)[O-])c1 (stereo unspecified)	-4
Clc1ccc2c(c1)C(N1CCNCC1)=Nc1ccccc1O2	-4

Continue with the next molecule.
Ask | Answer with the recorded inhibition of CC(C)(C)NCC(O)c1cc(O)cc(O)c1 (stereo unspecified) only.
Reply | -2
